- Tested on: Fer (mouse)
- assay.protocol: phosphorylation enrichment, bacterial display (enrichment ratio); higher = better substrate or ligand; peptides without Tyr show the background
experimental.endpoint: phosphorylation enrichment
Lab note: jot down the number only; don't add units.

- DRLAVCIDRVR [LMNA_Y45_Y45C]: 0.457
- DRLASYRDKVR [KRT12_Y139_L140R]: 0.366
- NSRYTYKLEVK [USH2A_Y3747]: 0.505
- AALSAYAPQRP [PTPRN2_Y249_A251P]: 0.541
- EKKKFYDAKIE [CASP5_Y104_T106A_YF]: 0.435
- SKKSTYQALLD [GANC_Y43]: 0.305

Now examine the next entry.
Data request: Give Fer (mouse) phosphorylation enrichment for ILGRFYETGSI [PAX2_Y73_YF]
Data returned: 0.4

====

- study.target: SHP2-C SH2
- assay.protocol: SH2 binding enrichment of the phosphorylated peptide, bacterial display (enrichment ratio); higher = better substrate or ligand; peptides without Tyr show the background
The reader will find reported SH2 binding enrichment values listed item by item below.
Please give only the number in your answer, with no unit.

Data request: Given the sequence RAIELCNDKEK [OTULIN_Y244_Y244C] , what is its reported SH2 binding enrichment?
Data returned: 0.762

Data request: Also check TISPFYCQSLF [CRYAA_Y48_R49C_YF]
Data returned: 0.707

Data request: Moving on to FLTQHHDAKPQ [ANG_Y38_Y38H]
Data returned: 0.669

Data request: Same read-out for EATKGYLDDPT [G6PD_Y322] ?
Data returned: 0.525

Data request: Also need MHLRQYKLLGG [GNAS_Y391_E392K] , thanks.
Data returned: 0.453

Data request: # iterate: FAADFYKLLGN [ROR2_Y646_YF]
Data returned: 0.821

Data request: Please give the result for LEEFQYIGELQ [MSH2_Y856_S860L] too.
Data returned: 0.986

====

- study.target: EPHB2 (UniProt P29323)
- Sequence (P29323 whole entry, looked up): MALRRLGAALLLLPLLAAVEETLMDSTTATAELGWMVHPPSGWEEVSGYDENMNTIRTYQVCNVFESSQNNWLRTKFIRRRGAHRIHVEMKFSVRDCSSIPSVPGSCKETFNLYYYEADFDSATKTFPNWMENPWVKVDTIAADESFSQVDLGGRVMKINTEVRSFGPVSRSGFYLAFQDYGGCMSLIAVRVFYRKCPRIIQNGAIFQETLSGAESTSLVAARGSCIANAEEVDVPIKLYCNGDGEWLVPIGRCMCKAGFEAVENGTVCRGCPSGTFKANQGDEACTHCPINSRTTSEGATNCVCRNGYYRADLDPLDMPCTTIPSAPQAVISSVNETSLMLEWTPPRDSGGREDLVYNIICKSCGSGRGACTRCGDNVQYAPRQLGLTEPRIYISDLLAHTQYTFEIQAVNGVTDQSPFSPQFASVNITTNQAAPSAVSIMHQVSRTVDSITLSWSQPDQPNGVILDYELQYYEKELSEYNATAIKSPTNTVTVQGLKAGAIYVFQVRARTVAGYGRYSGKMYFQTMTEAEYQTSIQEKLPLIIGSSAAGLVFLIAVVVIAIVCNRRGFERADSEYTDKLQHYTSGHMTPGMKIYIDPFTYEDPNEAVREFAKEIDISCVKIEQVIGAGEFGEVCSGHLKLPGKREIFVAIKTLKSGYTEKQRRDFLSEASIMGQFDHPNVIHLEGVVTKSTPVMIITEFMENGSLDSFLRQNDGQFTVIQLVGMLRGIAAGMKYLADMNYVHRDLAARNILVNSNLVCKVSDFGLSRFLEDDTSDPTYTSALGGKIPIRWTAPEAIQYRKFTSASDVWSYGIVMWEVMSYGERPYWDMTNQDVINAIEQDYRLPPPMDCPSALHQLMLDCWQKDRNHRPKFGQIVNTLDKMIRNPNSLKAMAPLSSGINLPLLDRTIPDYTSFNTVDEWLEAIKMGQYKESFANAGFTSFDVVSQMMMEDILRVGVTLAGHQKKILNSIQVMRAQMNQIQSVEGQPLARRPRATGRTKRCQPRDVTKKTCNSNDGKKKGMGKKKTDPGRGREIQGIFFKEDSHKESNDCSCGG
- assay.protocol: phosphorylation enrichment, bacterial display (enrichment ratio); higher = better substrate or ligand; peptides without Tyr show the background
experimental.endpoint: phosphorylation enrichment

• TISPFYCQSLF [CRYAA_Y48_R49C_YF] = 0.579
• SIKDKYVMALF [KCNH2_Y611_T613M_YF] = 0.491
• GIVEDYRPTFF [ACVRL1_Y421_P424T_YF] = 0.549

Data request: Any idea what its phosphorylation enrichment is? The sequence is KLADMYGGGED [CDH1_Y876]
Data returned: 0.43

Data request: And for DLDLTSIFPNI [PTEN_Y27_Y27S_YF] ?
Data returned: 0.485

Data request: Param item: TLSGIYQFNIA [FOXL2_Y81_I84N_YF]
Data returned: 0.555

Data request: MEKEKYVSYIS [JMJD1C_Y596] ?
Data returned: 0.509

Data request: Next up: EDKSIYRRGAC [PRKCI_Y125_R130C]
Data returned: 0.429

Data request: Record: LEFAKYGSLRG [RET_Y809_V804L_YF]
Data returned: 0.792

====

- study.target: EPHB2 (UniProt P29323)
- assay.protocol: phosphorylation enrichment, bacterial display (enrichment ratio); higher = better substrate or ligand; peptides without Tyr show the background
phosphorylation enrichment: recorded values
Respond with the number and no other words.

* QLDQRYLLVPE [DDX49_Y223] | 0.807

Data request: Request the reported phosphorylation enrichment associated with CTTIRYNYMCN [TP53_Y234_H233R]
Data returned: 0.583

Data request: Try this sequence next: PLQSEYSSITT [ITGB4_Y1760]
Data returned: 2.18

Data request: Entry to check: EFISEFCGEII [EZH2_Y641_Y641F]
Data returned: 0.719

Data request: Follow-up item: GRRNTYYASIA [ACADM_Y352]
Data returned: 0.477

====

sequences and their reported phosphorylation enrichment
- study.target: EPHB1 (UniProt P54762)
- Sequence (P54762 whole entry, looked up): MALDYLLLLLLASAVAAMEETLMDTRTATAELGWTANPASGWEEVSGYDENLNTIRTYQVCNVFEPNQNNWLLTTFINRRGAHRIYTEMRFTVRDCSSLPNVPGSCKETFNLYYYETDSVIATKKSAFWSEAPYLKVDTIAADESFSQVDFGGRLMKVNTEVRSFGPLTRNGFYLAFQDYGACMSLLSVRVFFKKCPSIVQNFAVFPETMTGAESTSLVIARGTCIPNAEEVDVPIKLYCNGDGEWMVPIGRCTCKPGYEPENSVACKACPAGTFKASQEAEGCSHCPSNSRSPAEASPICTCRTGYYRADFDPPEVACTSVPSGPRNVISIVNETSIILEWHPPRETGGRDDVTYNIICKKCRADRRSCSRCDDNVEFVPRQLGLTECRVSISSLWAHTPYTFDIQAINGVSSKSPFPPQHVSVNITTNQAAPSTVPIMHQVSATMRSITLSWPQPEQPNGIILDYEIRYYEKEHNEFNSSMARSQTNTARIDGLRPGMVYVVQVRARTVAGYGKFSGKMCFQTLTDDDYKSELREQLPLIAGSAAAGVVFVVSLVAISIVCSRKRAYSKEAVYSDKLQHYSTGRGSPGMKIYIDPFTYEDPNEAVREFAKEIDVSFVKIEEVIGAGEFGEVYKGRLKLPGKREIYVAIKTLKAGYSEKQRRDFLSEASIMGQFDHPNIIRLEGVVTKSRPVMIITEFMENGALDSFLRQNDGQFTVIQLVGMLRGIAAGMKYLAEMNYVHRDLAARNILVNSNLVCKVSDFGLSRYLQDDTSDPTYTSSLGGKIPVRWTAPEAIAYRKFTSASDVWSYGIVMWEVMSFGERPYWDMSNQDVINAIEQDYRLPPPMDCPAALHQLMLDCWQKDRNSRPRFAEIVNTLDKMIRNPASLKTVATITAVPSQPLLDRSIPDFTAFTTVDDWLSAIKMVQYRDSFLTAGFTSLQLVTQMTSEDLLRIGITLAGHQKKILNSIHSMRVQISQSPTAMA
- assay.protocol: phosphorylation enrichment, bacterial display (enrichment ratio); higher = better substrate or ligand; peptides without Tyr show the background
Answer with a number only.

The cases that follow already have their phosphorylation enrichment on record.
* WRPFGYPHRRR [BCS1L_Y181_R183H] | 0.534
* TSEASYFKSLN [NGEF_Y288_YF] | 0.438
* RRAKGYPINLY [ITGB2_Y125_D128N] | 0.707
* RLLRGYDQLAY [HLA-C_Y137_S140L] | 0.719
* SSQHRYSTPHT [RAF1_Y232_A237T] | 0.343

Consider now this further sequence.
Data request: What reported phosphorylation enrichment corresponds to RTVPLYESLRK [DDB1_Y718_P721L] on EPHB1 (UniProt P54762)?
Data returned: 23

====

- study.target: SHP2-C SH2;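 note: peptide library displayed on the E. coli surface as eCPX fusions, selected cells deep-sequenced, score is each peptide's frequency after selection divided by its frequency in the input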
- assay.protocol: SH2 binding enrichment of the phosphorylated peptide, bacterial display (enrichment ratio); higher = better substrate or ligand; peptides without Tyr show the background
Label 1 when SH2 binding enrichment >= 0.8; otherwise 0.

* KDQGIYEDFVE [MYL6_Y86_T85I_YF] | 1
* LVTAWYIGFLC [KCNQ2_Y237] | 0
* DPLASYLDKVR [KRT10_Y160_R156P] | 0
* KLLPEYPGILS [DHFR2_Y163_V166I] | 0
* EIEFLYNENTV [IARS1_Y680] | 0
* SSMIDYKPLEK [MYOC_Y479_N480K] | 0

Data request: Test whether the sequence TSLAQYDSNSK [BMX_Y216] records SH2 binding enrichment of 0.8 or higher.
Data returned: 0

Data request: What do you have for GDPTEYYSTAI [IGSF22_Y501] ?
Data returned: 0

Data request: Now the sequence MEIHAYRKLLE [LMNA_Y376]
Data returned: 0

Data request: Also, KNEVFYQCPDQ [FBXO3_Y223] please.
Data returned: 0

====

- Tested on: c-Src
- assay.protocol: phosphorylation enrichment, bacterial display (enrichment ratio); higher = better substrate or ligand; peptides without Tyr show the background
Catalogue of phosphorylation enrichment readings, one per entry.
Enter a number only.

- KKCTRYIDCDL [ASPA_Y64]: 0.429

Data request: Give its phosphorylation enrichment value. Item: RLLVVYTWTQR [HBB_Y36_P37T]
Data returned: 0.509

Data request: Another: EEALYYLTRVE [SET_Y119_H118Y]
Data returned: 4.59

Data request: Here is the next sequence: RALRHYFKLNI [ETV6_Y401_YF]
Data returned: 0.394

Data request: What do we get for KLLPEYPGILS [DHFR2_Y163_V166I] ?
Data returned: 0.431

Data request: Queued: NLGQQYNSPQE [UMPS_Y432]
Data returned: 0.374

Data request: Would you mind doing GRQWNYVASML [KLHL4_Y552_S557L] as well?
Data returned: 0.391

Data request: Same question, LQKNIYSEELR [LMNA_Y211_F206L] this time
Data returned: 0.722

Data request: Request: MEFLPYGSLRD [JAK2_Y934_YF]
Data returned: 2.6

====

- Test system: c-Abl (mouse)
- assay.protocol: phosphorylation enrichment, bacterial display (enrichment ratio); higher = better substrate or ligand; peptides without Tyr show the background
experimental.endpoint: phosphorylation enrichment
The answer should be written as a number, with no unit following it.

Some entries whose results are on file:
- QCTSAYLLQPE [NANS_Y188_P189L]: 1.24
- SIKDKYVTALY [KCNH2_Y611]: 0.507
- PFSSPYENSLI [EPOR_Y489_N487S_YF]: 0.705

Data request: Look at this sequence and give its reported phosphorylation enrichment. NKHTTYTMEHI [ACTN1_Y708_N707T]
Data returned: 0.514

Data request: Also check TLQIMYGCDVG [HLA-A_Y123_I119L]
Data returned: 0.997

Data request: What do you get for WTAHSYRMGSA [ARHGEF7_Y785_T790A] ?
Data returned: 0.495

====

- study.target: EPHB1 (UniProt P54762)
- assay.protocol: phosphorylation enrichment, bacterial display (enrichment ratio); higher = better substrate or ligand; peptides without Tyr show the background
experimental.endpoint: phosphorylation enrichment
Answer using only a numeral; do not append any unit.

- LQLLGDRPVYS [CHST6_Y358_Y358D]: 2.17
- VIKSSYQVAKA [CPT1B_Y534_E531K]: 0.364
- EASGIYVKSII [PATJ_Y396]: 0.543
- WFPANYVKLLN [ITSN1_Y1132_S1137N]: 3.81
- TEFIQYMRRKN [MAX_Y73_YF]: 0.44

Data request: Entry IPGGIYNADLN [CST4_Y35_D36N] has what phosphorylation enrichment?
Data returned: 0.514

Data request: Note, next up: NYAKMYCNPDA [KNL1_Y489]
Data returned: 0.673

Data request: Query FARECYSALPQ [SARS2_Y52_G51C_YF] next
Data returned: 0.55

Sourced from the supplement of paper PMC10065799
